- test method notes: Pharmacokinetic profile in mice (plasma, LC-MS/MS)
- experimental setup: male, CD-1, mouse, plasma, iv, 3 mg/kg
readout name: AUC(0-inf)
Answer as a quantity: numeral, then unit.

Task: Quick one: AUC(0-inf) of `C[C@]12CC=C3C=C4CC[C@@H](N5C[C@H](O)[C@@H](O)C5)C[C@]45CC[C@]3(O5)[C@@H]1CC[C@@H]2c1ccc2ccncc2c1` ?
Result: 2780 ng·h/mL

---

- test method notes: Pharmacokinetic profile in mice (plasma, LC-MS/MS)
- experimental setup: CD-1, mouse, plasma, iv, 3 mg/kg
readout name: clearance (mL/min/kg)
Give the value, in units of mL/min/kg, as a plain number.

Known clearance results, listed for orientation:
C[C@]12CC=C3C=C4CC[C@@H](O)C[C@]45CC[C@]3(O5)[C@@H]1CC[C@@H]2c1ccc2ccncc2c1 [Compound A]	18.4
C[C@]12CC=C3C=C4CC[C@@H](N5CC[C@@H](N)C5)C[C@]45CC[C@]3(O5)[C@@H]1CC[C@@H]2c1ccc2ccncc2c1 [Compound B]	31
C[C@]12CC=C3C=C4CC[C@@H](N5C[C@H](O)[C@@H](O)C5)C[C@]45CC[C@]3(O5)[C@@H]1CC[C@@H]2c1ccc2ccncc2c1 [Compound D]	18

Field: next molecule
Task: Quick one: clearance of C[C@]12CC=C3C=C4CC[C@@H](N5CC(N)C5)C[C@]45CC[C@]3(O5)[C@@H]1CC[C@@H]2c1ccc2ccncc2c1 [Compound C] ?
Result: 23.7

---

- measurement target: Adenosine Transporter (Cavia porcellus, UniProt H0V4R7)
- Sequence (H0V4R7 1-461): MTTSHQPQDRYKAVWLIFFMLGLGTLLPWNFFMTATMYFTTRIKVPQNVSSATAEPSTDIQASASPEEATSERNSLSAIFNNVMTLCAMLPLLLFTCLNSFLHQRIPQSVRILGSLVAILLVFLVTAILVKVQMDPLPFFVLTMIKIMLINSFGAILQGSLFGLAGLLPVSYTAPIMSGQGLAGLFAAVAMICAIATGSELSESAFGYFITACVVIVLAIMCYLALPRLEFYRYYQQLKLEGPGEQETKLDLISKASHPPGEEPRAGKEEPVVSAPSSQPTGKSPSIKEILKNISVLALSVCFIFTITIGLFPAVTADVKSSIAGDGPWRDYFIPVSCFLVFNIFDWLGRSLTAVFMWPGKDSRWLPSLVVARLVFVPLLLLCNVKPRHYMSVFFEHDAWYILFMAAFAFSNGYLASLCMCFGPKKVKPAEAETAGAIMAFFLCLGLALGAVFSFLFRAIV
- test method notes: Panlab assay, Adenosine Transporter
- Format: binding
- experimental setup: reference standard
readout name: pIC50
In simple prose, pIC50 is minus the logarithm base ten of a concentration in moles per litre.

Task: Quick one: pIC50 of O=[N+]([O-])c1ccc(CSc2ncnc3c2ncn3C2OC(CO)C(O)C2O)cc1 (stereo not shown) [nitrobenzylthioinosine, Nitrobenzylthioinosine, reference compound] ?
Result: 9.46

---

- measurement target: Tachykinin NK1 (Homo sapiens)
- Construct: Eurofins Panlabs
- Sequence (P25103 whole entry): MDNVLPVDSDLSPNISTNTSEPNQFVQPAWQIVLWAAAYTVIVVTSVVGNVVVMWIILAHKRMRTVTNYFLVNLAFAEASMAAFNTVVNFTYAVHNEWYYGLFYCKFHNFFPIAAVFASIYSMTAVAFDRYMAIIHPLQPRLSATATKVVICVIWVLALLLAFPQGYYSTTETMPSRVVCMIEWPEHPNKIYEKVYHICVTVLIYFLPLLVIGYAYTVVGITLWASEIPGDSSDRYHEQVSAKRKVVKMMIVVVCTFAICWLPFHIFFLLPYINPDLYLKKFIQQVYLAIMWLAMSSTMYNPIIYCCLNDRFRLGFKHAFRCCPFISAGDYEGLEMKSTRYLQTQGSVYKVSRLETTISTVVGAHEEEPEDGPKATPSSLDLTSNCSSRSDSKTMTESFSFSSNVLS
- test method notes: Panlab assay, Tachykinin NK1
- Type: binding
readout name: pIC50
In simple prose, pIC50 is minus the logarithm base ten of a concentration in moles per litre.

Task: Quick one: pIC50 of C[C@]12CC=C3C=C4CC[C@@H](O)C[C@]45CC[C@]3(O5)[C@@H]1CC[C@@H]2c1ccc2ccncc2c1 [Compound A] ?
Result: 5.23

---

- measurement target: UniProtKB H0V4R7
- test method notes: Panlab assay, Adenosine Transporter
- Type: binding
- experimental setup: Cheng and Prusoff
readout name: pKi
In simple prose, pKi is minus the logarithm base ten of a concentration in moles per litre.

Task: Quick one: pKi of `C[C@]12CC=C3C=C4CC[C@@H](O)C[C@]45CC[C@]3(O5)[C@@H]1CC[C@@H]2c1ccc2ccncc2c1` ?
Result: 5.91

---

- test method notes: Pharmacokinetic profile in mice (plasma, LC-MS/MS)
- experimental setup: male, CD-1, mouse, plasma, po, 1 mg/kg
readout name: AUC(0-inf)
Answer as a quantity: numeral, then unit.

Task: Quick one: AUC(0-inf) of `C[C@]12CC=C3C=C4CC[C@@H](N5CCC5)C[C@]45CCC3(O5)[C@@H]1CC[C@@H]2c1ccc2ccncc2c1` ?
Result: 524 ng·h/mL
